Cited source: BigSolDB 2.1

- condition-context: in n-propanol, 318.15 K
outcome-measure: solubility (mole fraction)
# respond with the number and nothing more

The compound listed as "O=c1[nH]c2ccccc2c(=O)o1" has a reported solubility (mole fraction) of 0.00291

* * *

- condition-context: in ethanol, 293.15 K
outcome-measure: solubility (mole fraction)

Reported solubility (mole fraction) of "O=c1[nH]c2ccccc2c(=O)o1" : 0.0015

* * *

- condition-context: in 1,4-dioxane, 303.15 K
outcome-measure: solubility (mole fraction)
I'd appreciate a reply containing only the number, no unit.

# compound "O=c1[nH]c2ccccc2c(=O)o1" ; its solubility (mole fraction) = 0.0119

* * *

- condition-context: in acetonitrile, 293.15 K
outcome-measure: solubility (mole fraction)
Lab note: write the figure by itself, no unit.

Measured solubility (mole fraction) of "O=c1[nH]c2ccccc2c(=O)o1" : 0.0033
